- Study system: Human 5-HT1A Receptor (Homo sapiens, UniProt P08908)
- Sequence (P08908 whole entry): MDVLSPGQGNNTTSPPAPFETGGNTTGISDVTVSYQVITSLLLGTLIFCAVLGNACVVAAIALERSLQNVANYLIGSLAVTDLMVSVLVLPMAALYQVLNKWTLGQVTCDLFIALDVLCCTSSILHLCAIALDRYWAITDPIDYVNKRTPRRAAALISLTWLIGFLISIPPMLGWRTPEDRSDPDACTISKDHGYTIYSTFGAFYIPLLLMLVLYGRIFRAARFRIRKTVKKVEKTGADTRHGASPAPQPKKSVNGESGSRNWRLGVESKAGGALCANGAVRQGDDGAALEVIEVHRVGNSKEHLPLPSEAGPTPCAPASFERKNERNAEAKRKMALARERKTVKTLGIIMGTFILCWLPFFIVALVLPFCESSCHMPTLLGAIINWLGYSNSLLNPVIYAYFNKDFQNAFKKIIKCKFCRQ
- Method notes: cAMP RIA in human 5-HT1A receptor cell line
- Condition context: superscript a; forskolin stimulated cAMP, CHO cells; read-out: c-AMP, (EC50)^a
- Protocol: Stably transfected CHO cells were grown in DMEM containing 10% heat inactivated FBS and non-essential amino acids. The cells were plated at a density of 10^6 cells per well in a 96 well plate and incubated for 2 days in a CO2 incubator. […] Compounds shown to have no agonist activities were further analyzed for ability to reverse agonist activity. […] In the initial screen, percent inhibition of forskolin stimulated cAMP was measured. […]
pEC50: −log10 of the molar value. Structures can show the parent of a compound that is named as a salt.
Quick rule: pEC50 of at least 7 means Satisfied, below that means Not satisfied.

compound="Cc1ccc2c3c(ccc2n1)OC[C@H](CNCC[C@@H]1CCc2[nH]c4ccc(F)cc4c2C1)O3 (single isomer, unassigned) [Example 41, dihydrochloride]" study_system="Human 5-HT1A Receptor (Homo sapiens, UniProt P08908)" answer_label=Satisfied
compound="Cc1ccc2c3c(ccc2n1)OC[C@H](CN(C[C@H]1CCc2[nH]c4ccc(F)cc4c2C1)C1CCCC1)O3 [Example 63, monohydrochloride monohydrate]" study_system="Human 5-HT1A Receptor (Homo sapiens, UniProt P08908)" answer_label="Not satisfied"
compound="CCCN(CC1CCc2[nH]c3ccc(F)cc3c2C1)C[C@H]1COc2ccc3nc(C)ccc3c2O1 (stereo partly drawn) [Example 51, dihydrochloride dihydrate]" study_system="Human 5-HT1A Receptor (Homo sapiens, UniProt P08908)" answer_label="Not satisfied"
compound="Cc1ccc2c3c(ccc2n1)OC[C@H](CN(CC1CC1)CC1CCc2[nH]c4ccc(F)cc4c2C1)O3 (stereo partly drawn) [Example 52, dihydrochloride dihydrate]" study_system="Human 5-HT1A Receptor (Homo sapiens, UniProt P08908)" answer_label="Not satisfied"
compound="Cc1ccc2c3c(ccc2n1)OC[C@H](CNCCC1CCc2[nH]c4ccc(F)cc4c2C1)O3 (mixture of isomers) [Example 40, dihydrochloride]" study_system="Human 5-HT1A Receptor (Homo sapiens, UniProt P08908)" answer_label=Satisfied

###

- Study system: serotonin transporter (Rattus norvegicus)
- Sequence (P31652 whole entry): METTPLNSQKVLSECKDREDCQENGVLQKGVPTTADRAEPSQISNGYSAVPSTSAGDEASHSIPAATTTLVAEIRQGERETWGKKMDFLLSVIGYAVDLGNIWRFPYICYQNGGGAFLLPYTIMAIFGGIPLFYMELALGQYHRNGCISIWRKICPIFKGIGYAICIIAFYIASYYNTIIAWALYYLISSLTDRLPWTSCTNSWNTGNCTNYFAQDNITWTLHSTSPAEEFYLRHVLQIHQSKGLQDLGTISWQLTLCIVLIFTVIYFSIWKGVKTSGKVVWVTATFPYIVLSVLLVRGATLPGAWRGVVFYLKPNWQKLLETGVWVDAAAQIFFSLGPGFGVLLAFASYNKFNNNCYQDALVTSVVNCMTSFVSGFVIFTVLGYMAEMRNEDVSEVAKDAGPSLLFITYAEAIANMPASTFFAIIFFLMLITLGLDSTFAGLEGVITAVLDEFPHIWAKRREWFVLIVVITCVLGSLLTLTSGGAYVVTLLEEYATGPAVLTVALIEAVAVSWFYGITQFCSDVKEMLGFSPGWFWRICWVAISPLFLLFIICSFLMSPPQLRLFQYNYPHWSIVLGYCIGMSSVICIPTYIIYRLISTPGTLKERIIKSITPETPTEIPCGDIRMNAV
Where a name gives a salt, the structure may show the parent alone.
Reported Ki by item:
Reported property: Ki (nM)

molecule="Cc1ccc2c3c(ccc2n1)OC[C@H](CNCC1CCc2sc4ccccc4c2C1)O3 (single isomer, unassigned) [32 diastereomers 1]" unit_of_measurement=nM sign_qualifier=> numeric_readout=1000
molecule="CCC(C)N(C[C@@H]1CCc2[nH]c3ccc(F)cc3c2C1)C[C@H]1COc2ccc3nc(C)ccc3c2O1 (some centres unmarked) [Example 58, monohydrochloride monohydrate]" unit_of_measurement=nM sign_qualifier== numeric_readout=358
molecule="Cc1ccc2c3c(ccc2n1)OC[C@H](CN(C[C@@H]1CCc2[nH]c4ccc(F)cc4c2C1)C1CCCCC1)O3 [Example 60, monohydrochloride monohydrate]" unit_of_measurement=nM sign_qualifier== numeric_readout=394
molecule="Cc1ccc2c3c(ccc2n1)OC[C@H](CNCC1CCc2c(sc4cc(F)ccc24)C1)O3 (single isomer, unassigned) [39 diastereomer 2]" unit_of_measurement=nM sign_qualifier== numeric_readout=184
molecule="Cc1ccc2c3c(ccc2n1)OC[C@H](CN(C[C@H]1CCc2[nH]c4ccc(F)cc4c2C1)C1CCCC1)O3 [Example 63, monohydrochloride monohydrate]" unit_of_measurement=nM sign_qualifier== numeric_readout=113
molecule="Cc1ccc2c3c(ccc2n1)OC[C@H](CNCC1CCc2sc4ccc(F)cc4c2C1)O3 (single isomer, unassigned) [31 diastereomer 2]" unit_of_measurement=nM sign_qualifier== numeric_readout=51.5
molecule="Cc1ccc2c3c(ccc2n1)OC[C@H](CN(C)C[C@H]1CCc2c(c4cc(F)ccc4n2C)C1)O3 [Example 68, monohydrochloride monohydrate]" unit_of_measurement=nM sign_qualifier== numeric_readout=293
molecule="CCN(CC1CCc2[nH]c3ccc(F)cc3c2C1)C[C@H]1COc2ccc3nc(C)ccc3c2O1 (some centres unmarked) [Example 50, dihydrochloride dihydrate]" unit_of_measurement=nM sign_qualifier== numeric_readout=26.9
molecule="Cc1ccc2c3c(ccc2n1)OC[C@H](CN(C[C@@H]1CCc2[nH]c4ccc(F)cc4c2C1)C1CCC1)O3 [Example 56, dihydrochloride dihydrate]" unit_of_measurement=nM sign_qualifier== numeric_readout=127
molecule="CCCN(CC1CCc2[nH]c3ccc(F)cc3c2C1)C[C@H]1COc2ccc3nc(C)ccc3c2O1 (some centres unmarked) [Example 51, dihydrochloride dihydrate]" unit_of_measurement=nM sign_qualifier== numeric_readout=88
molecule="Cc1ccc2c3c(ccc2n1)OC[C@H](CNC1CCc2c([nH]c4ccccc24)C1)O3.Cl.Cl (mixture of isomers) [Example 43, dihydrochloride]" unit_of_measurement=nM sign_qualifier== numeric_readout=45.1
molecule="Cc1ccc2c3c(ccc2n1)OC[C@H](CN(C)C[C@@H]1CCc2c(c4cc(F)ccc4n2C)C1)O3 [Example 69, monohydrochloride monohydrate]" unit_of_measurement=nM sign_qualifier== numeric_readout=220
molecule="Cc1ccc2c3c(ccc2n1)OC[C@H](CN(C[C@H]1CCc2[nH]c4ccc(F)cc4c2C1)C1CCCCC1)O3 [Example 64, monohydrochloride monohydrate]" unit_of_measurement=nM sign_qualifier== numeric_readout=455
molecule="Cc1ccc2c3c(ccc2n1)OC[C@H](CNCC1CCc2sc4ccc(F)cc4c2C1)O3 (single isomer, unassigned) [31 diastereomer 1]" unit_of_measurement=nM sign_qualifier== numeric_readout=9.9
molecule="Cc1ccc2c3c(ccc2n1)OC[C@H](CN[C@H]1CCc2c([nH]c4ccccc24)C1)O3 (single isomer, unassigned) [Example 45, dihydrochloride]" unit_of_measurement=nM sign_qualifier== numeric_readout=34.3
molecule="Cc1ccc2c3c(ccc2n1)OC[C@H](CN[C@@H]1CCc2c([nH]c4ccc(F)cc24)C1)O3 (single isomer, unassigned) [Example 47, dihydrochloride]" unit_of_measurement=nM sign_qualifier== numeric_readout=12.8
molecule="Cc1ccc2c3c(ccc2n1)OC[C@H](CN(CC1CC1)C[C@@H]1CCc2[nH]c4ccc(F)cc4c2C1)O3 [Example 55, dihydrochloride dihydrate]" unit_of_measurement=nM sign_qualifier== numeric_readout=110
molecule="Cc1ccc2c3c(ccc2n1)OC[C@H](CNCC1CCc2c(sc4cc(F)ccc24)C1)O3 (single isomer, unassigned) [39 diastereomer 1]" unit_of_measurement=nM sign_qualifier== numeric_readout=210
molecule="Cc1ccc2c3c(ccc2n1)OC[C@H](CN(C[C@@H]1CCc2[nH]c4ccc(F)cc4c2C1)C1CCCC1)O3 [Example 59, monohydrochloride monohydrate]" unit_of_measurement=nM sign_qualifier== numeric_readout=362
molecule="Cc1ccc2c3c(ccc2n1)OC[C@H](CNC1CCc2c([nH]c4ccc(F)cc24)C1)O3 (mixture of isomers) [Example 46]" unit_of_measurement=nM sign_qualifier== numeric_readout=8.55
molecule="Cc1ccc2c3c(ccc2n1)OC[C@H](CN(CC1CC1)CC1CCc2[nH]c4ccc(F)cc4c2C1)O3 (some centres unmarked) [Example 52, dihydrochloride dihydrate]" unit_of_measurement=nM sign_qualifier== numeric_readout=670
molecule="Cc1ccc2c3c(ccc2n1)OC[C@H](CNCC1CCc2sc4ccccc4c2C1)O3 (single isomer, unassigned) [32 diastereomer 2]" unit_of_measurement=nM sign_qualifier== numeric_readout=47.6
molecule="Cc1ccc2c3c(ccc2n1)OC[C@H](CN(C[C@@H]1CCc2[nH]c4ccc(F)cc4c2C1)C(C)C)O3 [Example 57, monohydrochloride monohydrate]" unit_of_measurement=nM sign_qualifier== numeric_readout=1570
